STUDY_TARGET: MAGL (Mus musculus, UniProt O35678)
Construct: Proteomes (mouse brain membrane fraction or cell lysates); from tissue; host or cells: mouse brain membrane fraction (or cell lysates)
Sequence (O35678 whole entry): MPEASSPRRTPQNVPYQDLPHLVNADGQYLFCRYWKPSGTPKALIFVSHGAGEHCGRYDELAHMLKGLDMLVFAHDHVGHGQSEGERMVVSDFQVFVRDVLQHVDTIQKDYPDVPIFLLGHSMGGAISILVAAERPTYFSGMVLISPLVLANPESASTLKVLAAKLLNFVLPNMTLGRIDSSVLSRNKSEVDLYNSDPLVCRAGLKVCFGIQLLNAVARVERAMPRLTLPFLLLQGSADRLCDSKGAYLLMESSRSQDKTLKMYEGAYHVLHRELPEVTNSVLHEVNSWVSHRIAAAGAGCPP
METHOD_NOTES: Mouse brain proteomes from inhibitor treated mice (oral gavage, sacrificed 4 h after administration)
Type: in vivo
CONDITION_CONTEXT: read-out: MAGL % inh. 5 mg/kg
MEASURE: inhibition at 5 mg/kg

Use the examples below as a reference point.
CS(=O)(=O)Nc1ccn(C(=O)N2CCN(Cc3ccc(C(F)(F)F)cc3N3CC4CCC(C3)O4)CC2)n1 | 50 to 75%
CC(=O)Nc1ccn(C(=O)N2CCN(Cc3ccc(C(F)(F)F)cc3N3CC4CCC(C3)O4)CC2)n1 | 25 to 50%

Below is a list of compounds. For each, state its recorded inhibition at 5 mg/kg.
1. CS(=O)(=O)Nc1ccn(C(=O)N2CCC3(CCCN3Cc3ccc(C(F)(F)F)c(Cl)c3)CC2)n1
2. CC(=O)Nc1ccn(C(=O)N2CCN(Cc3ccc(Cl)cc3N3CCN(S(C)(=O)=O)CC3)CC2)n1

Out:
1. 0 to 25%
2. 0 to 25%
